Source: patent US10400224B2

Listed here are molecules together with their documented % actividad relativa.
- Test system: modified esterase 499EST
- assay-remarks: Effect of organic solvents on the modified esterase
- Format: biochemical, Acidicaldus organivorans USBA-GBX-499
- test-context: organic solvent 15%; pNPC8, 55° C., pH 9.0
Only the number, expressed in %, is required.

CC(C)O ... 80.0
CCC(C)O (stereo not shown) ... 16.3
CC#N ... 17.0
CCO ... 22
OCC(O)CO ... 234.8

Which value of % actividad relativa has been reported for CCCO in the records? 26.8

Which value of % actividad relativa has been reported for C[S+](C)[O-] [DMSO, dimethyl sulfoxide] in the records? 180.0

---

- Test system: modified esterase 499EST
- assay-remarks: Effect of metallic ions on the activity of the modified esterase 499EST
- Assay type: biochemical, Acidicaldus organivorans USBA-GBX-499
- test-context: ion 1 mM; pNPC8, 55° C., pH 9.0; control without additives = 100%
- Description: The activity of the modified enzyme was determined spectrophotometrically at 405 nm in a range of temperatures between 45 and 75° C., using p-nitro phenyl of other chains C6 to C10 (Sigma-Aldrich) as substrate. […] The molar absorbance coefficient was of 16.900 M^−1 cm^−1. […] All the assays were made by triplicate and the average was calculated. […] It was evaluated the effect of metallic ions on the enzyme activity. […]
reported-metric: Actividad relativa (%)
Provide a numeric answer, followed by its unit.

# example entries with known answers
[Cl][Fe]([Cl])[Cl] [Fe^3+, FeCl3] ... 111%
[Cl][Mn][Cl] [Mn^2+, MnCl2] ... 252%
[Cl][Cu][Cl] [Cu^2+, CuCl2] ... 16%
[Ca+2].[Cl-].[Cl-] [Ca^2+, CaCl2] ... 9%
[Cl-].[Cl-].[Co+2] [Co^2+, CoCl2] ... 74%
[Cl-].[Cl-].[Zn+2] [Zn^2+, ZnCl2] ... 190%

// next entry
Which value of Actividad relativa (%) has been reported for [Cl-].[Cl-].[Mg+2] [Mg^2+, MgCl2] in the records? 76%

---

Listed here are compounds together with their documented % actividad relativa.
- Tested on: modified esterase 499EST
- assay-remarks: Effect of organic solvents on the modified esterase
- Assay type: biochemical, Acidicaldus organivorans USBA-GBX-499
- test-context: organic solvent 15%; pNPC8, 55° C., pH 9.0
- Description: The activity of the modified enzyme was determined spectrophotometrically at 405 nm in a range of temperatures between 45 and 75° C., using p-nitro phenyl of other chains C6 to C10 (Sigma-Aldrich) as substrate. […] The molar absorbance coefficient was of 16.900 M^−1 cm^−1. […] All the assays were made by triplicate and the average was calculated. […] Effect of organic solvents. The activity of the enzyme was evaluated in presence of different organic solvents. […]
Only the number, expressed in %, is required.

CN(C)C=O [DMF, dimethyl formamide] ... 12.4
CO ... 3.0

// next entry
Which value of % actividad relativa has been reported for CC(C)=O in the records? 72.0

---

- Test system: modified esterase 499EST
- assay-remarks: Effect of organic solvents on the modified esterase
- Format: biochemical, Acidicaldus organivorans USBA-GBX-499
- test-context: organic solvent 30%; pNPC8, 55° C., pH 9.0
Listed here are compounds together with their documented % actividad relativa.
Provide a numeric answer, followed by its unit.

# example entries with known answers
CC(C)O ... 31.3%
CN(C)C=O [DMF, dimethyl formamide] ... 12.4%
CCCO ... 24.81%

Notebook entry, modified esterase 499EST assay: % actividad relativa of CC#N = ? 0.0%

Notebook entry, modified esterase 499EST assay: % actividad relativa of CO = ? 0.0%

Notebook entry, modified esterase 499EST assay: % actividad relativa of CCC(C)O (stereo not shown) = ? 14.7%

Notebook entry, modified esterase 499EST assay: % actividad relativa of CC(C)=O = ? 9.7%

Notebook entry, modified esterase 499EST assay: % actividad relativa of C[S+](C)[O-] [DMSO, dimethyl sulfoxide] = ? 200.2%

Notebook entry, modified esterase 499EST assay: % actividad relativa of CCO = ? 12.9%

Notebook entry, modified esterase 499EST assay: % actividad relativa of OCC(O)CO = ? 250.3%
